# Efficacy ratio annotations
TARGET_UNDER_TEST: Muscarinic acetylcholine receptor (Rattus norvegicus) (UniProt P08482+P08483+P08485+P08911+P10980)
TEST_DESCRIPTION: Relative binding efficacy for muscarinic receptors using QNB and CMD
Assay type: protein assay
Write no unit; give the number alone.

Example molecules with recorded Efficacy ratio:
[[record]]
molecule = "CC(/C=N/O)CC#CCN(C)C (configuration not stated)"
observed_measurement = 441

[[record]]
molecule = "CC(=O)N(C)CC#CCN(C)C"
observed_measurement = 4070

[[record]]
molecule = "C[N+](C)(C)CC#CCOC(=O)Nc1cccc(Cl)c1.[Cl-]"
observed_measurement = 84


Item "CC(=O)N(C)CC#CCN1CCCC1" has what recorded Efficacy ratio? 544

Item CC(/C=N/O)CC#CCN1CCCC1 (configuration not stated) has what recorded Efficacy ratio? 92

Item CC(=O)C(C)CC#CCN1CCCC1 (configuration not stated) has what recorded Efficacy ratio? 97

====

TARGET_UNDER_TEST: Muscarinic acetylcholine receptor M1 (Homo sapiens, UniProt P11229)
Sequence (P11229 whole entry): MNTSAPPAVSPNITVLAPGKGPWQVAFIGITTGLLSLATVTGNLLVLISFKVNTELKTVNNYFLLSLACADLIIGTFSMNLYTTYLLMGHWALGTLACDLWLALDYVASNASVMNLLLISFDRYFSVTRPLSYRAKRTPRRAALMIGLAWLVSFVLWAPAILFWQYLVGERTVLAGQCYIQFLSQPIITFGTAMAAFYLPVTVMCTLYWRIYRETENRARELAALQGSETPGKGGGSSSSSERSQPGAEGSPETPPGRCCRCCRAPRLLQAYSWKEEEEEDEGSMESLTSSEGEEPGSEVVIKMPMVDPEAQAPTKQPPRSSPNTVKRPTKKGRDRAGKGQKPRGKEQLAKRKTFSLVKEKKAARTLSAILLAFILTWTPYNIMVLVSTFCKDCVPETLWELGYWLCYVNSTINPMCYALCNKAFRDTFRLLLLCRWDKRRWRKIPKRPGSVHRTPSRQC
TEST_DESCRIPTION: Displacement of [3H]QNB in genetically transformed mouse cell line (m1C2) transfected with Muscarinic acetylcholine receptor M1
REPORTED_PROPERTY: pIC50
On this scale, pIC50 is minus log10 of a concentration expressed in M (mol/L).

Example molecules with recorded pIC50:
[[record]]
molecule = "CC(=O)N(C)CC#CCN(C)C"
reported_property = "pIC50"
observed_measurement = 4.06

[[record]]
molecule = "CC(/C=N/O)CC#CCN1CCCC1 (stereo not drawn)"
reported_property = "pIC50"
observed_measurement = 6.04

[[record]]
molecule = "CC(=O)CCC#CCN(C)C"
reported_property = "pIC50"
observed_measurement = 4.29


Item O=C1CCCN1CC#CCN1CCCC1 [OXOTREMORINE] has what recorded pIC50? 6.44

Item "CC(=O)N(C)CC#CCN1CCCC1" has what recorded pIC50? 5.61

Item CC(/C=N/O)CC#CCN(C)C (stereo not drawn) has what recorded pIC50? 4.59

Item CC(=O)C(C)CC#CCN1CCCC1 (stereo not drawn) has what recorded pIC50? 5.55

Item "C[N+](C)(C)CC#CCOC(=O)Nc1cccc(Cl)c1.[Cl-]" has what recorded pIC50? 5.14

====

# Efficacy ratio annotations
TARGET_UNDER_TEST: Muscarinic acetylcholine receptor (Rattus norvegicus) (UniProt P08482+P08483+P08485+P08911+P10980)
TEST_DESCRIPTION: Relative binding efficacy for muscarinic receptors using QNB and CMD
Format: protein assay
Write no unit; give the number alone.

Example compounds with recorded Efficacy ratio:
[[record]]
compound = "C/C(CCC#CCN(C)C)=N\\O"
reported_property = "Efficacy ratio"
observed_measurement = 265

[[record]]
compound = "C/C(CCC#CCN1CCCC1)=N\\O"
reported_property = "Efficacy ratio"
observed_measurement = 3

[[record]]
compound = "CC(=O)C(C)CC#CCN(C)C (stereo unspecified)"
reported_property = "Efficacy ratio"
observed_measurement = 549

[[record]]
compound = "O=C1CCCN1CC#CCN1CCCC1"
reported_property = "Efficacy ratio"
observed_measurement = 308

[[record]]
compound = "CC(=O)CCC#CCN1CCCC1"
reported_property = "Efficacy ratio"
observed_measurement = 34


Item "CC(=O)CCC#CCN(C)C" has what recorded Efficacy ratio? 965
